experimentalSystem: Influenza A virus M2 proton channel (A/TW/4845/1999 H1N1)
assayNotes: M2 proton channel binding, NMR based, influenza A virus H1N1 strain (AID 1549)
conditions: NMR binding screen, M2 protein
The source made the active and inactive calls. The rule behind the calls is not given here.
Listing: Kd of selected molecules

molecule=O=C1CS/C(=N/S(=O)(=O)c2ccccc2)N1 experimentalsystem="Influenza A virus M2 proton channel (A/TW/4845/1999 H1N1)" recordedvalue="> 4 mM (inactive)"
molecule=Nc1c2c3c(sc2nc(=O)n1N)CCCC3 experimentalsystem="Influenza A virus M2 proton channel (A/TW/4845/1999 H1N1)" recordedvalue="> 4 mM (inactive)"
molecule=O=C1C=CC(=O)N1c1ccc(N2CCOCC2)cc1 experimentalsystem="Influenza A virus M2 proton channel (A/TW/4845/1999 H1N1)" recordedvalue="> 4 mM (inactive)"
molecule=COC(=O)c1c(OC)cc2c(c1C)Oc1c(Cl)c(OC(C)=O)c(Cl)c(C)c1C(=O)O2 experimentalsystem="Influenza A virus M2 proton channel (A/TW/4845/1999 H1N1)" recordedvalue="> 4 mM (inactive)"
molecule="CC(=O)OC1CCC23CC1(C)CCC2C(C)(C)CC3OC(C)=O (stereo not drawn)" experimentalsystem="Influenza A virus M2 proton channel (A/TW/4845/1999 H1N1)" recordedvalue="> 4 mM (inactive)"
molecule="CC1SC(=NC(=O)c2ccco2)NC1=O (stereo not drawn)" experimentalsystem="Influenza A virus M2 proton channel (A/TW/4845/1999 H1N1)" recordedvalue="> 4 mM (inactive)"
molecule=CC(C)C(=O)NC(=S)N1CCOCC1 experimentalsystem="Influenza A virus M2 proton channel (A/TW/4845/1999 H1N1)" recordedvalue="> 4 mM (inactive)"
molecule=O=C(NCCO)NC(=S)c1ccccc1 experimentalsystem="Influenza A virus M2 proton channel (A/TW/4845/1999 H1N1)" recordedvalue="> 4 mM (inactive)"

Q: State Kd on Influenza A virus M2 proton channel (A/TW/4845/1999 H1N1). Entry: Cc1nc2ccccc2c(=O)n1NC(=O)C1CCCCC1
Result: > 4 mM (inactive)

Q: State measured Kd of the molecule OCc1ccc(Oc2ccccc2)nc1 with Influenza A virus M2 proton channel (A/TW/4845/1999 H1N1).
Result: > 4 mM (inactive)

Q: Quote Influenza A virus M2 proton channel (A/TW/4845/1999 H1N1) Kd for entry CNC(=O)c1cc(S(=O)(=O)N(C)C)ccc1Cl .
Result: > 4 mM (inactive)

Q: Please look at Cc1nc(-c2cccc(N)c2)cs1 and tell me its recorded Kd on Influenza A virus M2 proton channel (A/TW/4845/1999 H1N1).
Result: > 4 mM (inactive)

Q: Return reported Kd for target or system Influenza A virus M2 proton channel (A/TW/4845/1999 H1N1), item O=CN1CCN(C(=O)c2ccco2)CC1 .
Result: > 4 mM (inactive)

* * *

This section presents compounds with their documented Kd values.
experimentalSystem: Influenza A virus M2 proton channel (A/TW/4845/1999 H1N1)
assayNotes: M2 proton channel binding, NMR based, influenza A virus H1N1 strain (AID 1549)
conditions: NMR binding screen, M2 protein
Calls of active or inactive are those of the source. How the calls were made is not given here.

compound="COC(=O)C[C@H]1C(C)(C)C(=O)[C@@H]2CC3C4=CC(=O)O[C@@H](c5ccoc5)[C@]4(C)CCC3C1(C)C2=O (stereo not given in full)" valuetype=Kd recordedvalue="> 4 mM (inactive)"
compound=O=C(CSc1ccc(Cl)cc1)N1CCOCC1 valuetype=Kd recordedvalue="> 4 mM (inactive)"
compound=c1ccc(CCc2nc(-c3ccncc3)no2)cc1 valuetype=Kd recordedvalue="> 4 mM (inactive)"
compound=O=C(NN1CCOCC1)c1ccccc1F valuetype=Kd recordedvalue="> 4 mM (inactive)"
compound=O=c1ccc2nc3ccccc3c(=O)n2[nH]1 valuetype=Kd recordedvalue="> 4 mM (inactive)"
compound=COC1=C(OC)C(=O)C(C/C=C(\C)CC/C=C(\C)CC/C=C(\C)CC/C=C(/C)CC/C=C(\C)CC/C=C(\C)CC/C=C(\C)CC/C=C(\C)CC/C=C(\C)CCC=C(C)C)=C(C)C1=O valuetype=Kd recordedvalue="> 4 mM (inactive)"

Q: Hello, please tell me recorded Kd for this one: CC1=NNC(=O)C1CCc1ccncc1 (stereo not given)
Result: > 4 mM (inactive)

Q: Report Kd, nothing else, for this compound: NCCCCNCCCN
Result: > 4 mM (inactive)

Q: Look up and state reported Kd for CC(=O)Oc1ccc2c(c1OC(C)=O)OCC1(O)Cc3c(cc(OC(C)=O)c(OC(C)=O)c3OC(C)=O)C21 (stereo not given)
Result: > 4 mM (inactive)

Q: Using the record for Cc1sc2nc[nH]c(=S)c2c1C , state its measured Kd.
Result: > 4 mM (inactive)

Q: Query Kd for CC(=O)Nc1cc(N2C(=O)C=CC2=O)ccc1Cl
Result: > 4 mM (inactive)

Q: Return value of Kd for input Cn1c(SCC(N)=O)nc2c1c(=O)[nH]c(=O)n2C , no commentary.
Result: > 4 mM (inactive)

Q: Give the value of Kd reported for the following: Cn1c(-c2ccccc2F)n[nH]c1=S
Result: > 4 mM (inactive)

Q: # return recorded Kd for entry COC(=O)c1ccc2nc[nH]c2c1
Result: > 4 mM (inactive)

Q: Read off the recorded Kd for NC(=O)NC1C=CS(=O)(=O)C1 (stereo not given)
Result: > 4 mM (inactive)

Q: For Nc1cccc(NC(=O)c2cccs2)c1 , write its Kd.
Result: > 4 mM (inactive)

* * *

experimentalSystem: Influenza A virus M2 proton channel (A/TW/4845/1999 H1N1)
assayNotes: M2 proton channel binding, NMR based, influenza A virus H1N1 strain (AID 1549)
conditions: NMR binding screen, M2 protein
Activity calls are given as the source filed them. No rule for the calls is given here.
Entries and their measured Kd follow.

Example compounds with recorded Kd:
compound=Cc1cc(C)n2nc(C(=O)NCc3ccco3)nc2n1 experimentalsystem="Influenza A virus M2 proton channel (A/TW/4845/1999 H1N1)" recordedvalue="> 4 mM (inactive)"
compound=CNC(=O)N1CCN(C(=O)NC)CC1 experimentalsystem="Influenza A virus M2 proton channel (A/TW/4845/1999 H1N1)" recordedvalue="> 4 mM (inactive)"
compound="O=C(O)C1CSC2(CCCCC2)N1 (stereo not drawn)" experimentalsystem="Influenza A virus M2 proton channel (A/TW/4845/1999 H1N1)" recordedvalue="> 4 mM (inactive)"

Q: # return recorded Kd for entry COc1ccc(C(O)c2nccn2C)cc1 (stereo not drawn)
Result: > 4 mM (inactive)

Q: Provide Kd value for the following compound: O=[N+]([O-])c1ccc2c(c1)N([O-])C1(CCCCC1)[N+]2=O
Result: > 4 mM (inactive)

Q: Provide one value: measured Kd of O=C(Nc1ccon1)c1ccc(Br)o1
Result: > 4 mM (inactive)

Q: // fetch Kd given entry Nc1nnc(SCc2ccccc2Cl)s1
Result: > 4 mM (inactive)

Q: Provide measured Kd value, entry: CSc1ccccc1NC(=O)c1ccncc1
Result: > 4 mM (inactive)

Q: Answer with the recorded Kd of Cc1nc2ccccc2c(=O)n1/N=C/c1ccco1 only.
Result: > 4 mM (inactive)

Q: Specify reported Kd for the compound shown: COc1cc(OC)c2c(OC)c(-c3ccc4c(c3)OCO4)c(=O)oc2c1
Result: > 4 mM (inactive)

Q: Please give the documented Kd of Cn1nnc2c(Cl)ncnc21
Result: > 4 mM (inactive)

Q: Give the value of Kd reported for the following: Nc1ccc(CCC(=O)O)cc1
Result: > 4 mM (inactive)

* * *

experimentalSystem: Influenza A virus M2 proton channel (A/TW/4845/1999 H1N1)
assayNotes: M2 proton channel binding, NMR based, influenza A virus H1N1 strain (AID 1549)
conditions: NMR binding screen, M2 protein
Calls of active or inactive are those of the source. No rule for the calls is given here.
Each item that follows carries a reported Kd.

Solved cases (5 shown):
compound=COC(=O)c1scc(S(C)(=O)=O)c1-n1cccc1 valuetype=Kd recordedvalue="> 4 mM (inactive)"
compound=NCc1n[nH]c(=O)c2ccccc12 valuetype=Kd recordedvalue="> 4 mM (inactive)"
compound=CC(=O)Nc1ccc(C)cc1NC(C)=O valuetype=Kd recordedvalue="> 4 mM (inactive)"
compound=Cc1nc2sc3c(c2c(=N)n1N)CC(C)(C)OC3 valuetype=Kd recordedvalue="> 4 mM (inactive)"
compound=CC(=O)Nc1ccn(-c2ccccc2)n1 valuetype=Kd recordedvalue="> 4 mM (inactive)"

Q: Using known records, supply Kd for Cc1cccc(C)c1NC(=O)CN1CCOCC1
Result: > 4 mM (inactive)

Q: For the compound OCc1ccncc1 , give its measured Kd value.
Result: > 4 mM (inactive)

Q: For the compound O=C1CCC(=O)N1c1ccc(F)cc1 , report Kd.
Result: > 4 mM (inactive)

Q: State, in one line, measured Kd of OCc1ccccc1CN1CCOCC1
Result: > 4 mM (inactive)

Q: Using known records, supply Kd for CC1(C)CC[C@]2(C(=O)O)CC[C@]3(C)C(=CCC4[C@@]5(C)CC[C@H](O)[C@@](C)(CO)C5CC[C@]43C)C2C1 (stereo partly drawn)
Result: > 4 mM (inactive)

Q: Identify measured Kd associated with Nc1cccc2nonc12
Result: > 4 mM (inactive)

Q: Return Kd for the following compound: CNC(=O)c1cc(C)c(-c2ccccc2)s1
Result: > 4 mM (inactive)

Q: Annotate the compound CCC(=O)Nc1ccc(-c2nn3c(C)nnc3s2)cc1 with its measured Kd.
Result: > 4 mM (inactive)
